System: CCRIS mutagenicity, Ames/micronucleus/aberration tests
Assay: CCRIS mutagenicity studies
Details: Test System: AMES SALMONELLA TYPHIMURIUM; Strain/Indicator: TA1535; Metabolic Activation: RAT, LIVER, S-9, AROCLOR 1254; Method: PREINCUBATION
Activity calls are given as the source filed them. How the calls were made is not given here.
Tick one outcome: Y for active, N for inactive

Field: example entries. Status: answers known.
Ask | What was the test verdict on CC[N+]([O-])=NC ?
Reply | N

Ask | What was the test verdict on CCN(N=O)c1ccccc1 ?
Reply | N

Ask | What was the test verdict on O=C1C=CC(=O)C=C1 ?
Reply | N

Ask | What was the test verdict on CCC(C)=O ?
Reply | N

***
Ask | What was the test verdict on Nc1nc(=O)n([C@H]2C[C@H](O)[C@@H](CO)O2)cc1I ?
Reply | N

Ask | What was the test verdict on CN(C)c1ccccc1 ?
Reply | N

Ask | What was the test verdict on CCN=[N+]([O-])CC ?
Reply | N

Ask | What was the test verdict on Clc1c(Cl)c(Cl)c2ccccc2c1Cl ?
Reply | N

Ask | What was the test verdict on CC1(C)S[C@@H]2[C@H](NC(=O)COc3ccccc3)C(=O)N2[C@H]1C(=O)O ?
Reply | N

Ask | What was the test verdict on Clc1cc(Cl)c(Cl)c(Cl)c1 ?
Reply | N

Ask | What was the test verdict on Clc1cc(Cl)c(Cl)c(Cl)c1Cl ?
Reply | N
